Answer each item with its documented pIC50.
- System: ERK5 (HA-ERK5 wt activated by EGFP-MEK5D, MEF2D-Gal4/Gal4-Luc reporter) in HEK293 cells
- protocol text: Dual-luciferase reporter assay (ERK5 reporter), reverse-transfected HEK293 cells
- applied conditions: Homo sapiens, HEK293, read-out: ERK 5 Reporter Assay
For clarity, pIC50 is expressed as the negative log10 of concentration in mol/L.

Entry O=C(NC1CCNCC1)c1cc(C(=O)c2c(F)cccc2F)c[nH]1 [Example 126] , ERK5 (HA-ERK5 wt activated by EGFP-MEK5D, MEF2D-Gal4/Gal4-Luc reporter) in HEK293 cells data, pIC50 value: 4.74

Tested on ERK5 (HA-ERK5 wt activated by EGFP-MEK5D, MEF2D-Gal4/Gal4-Luc reporter) in HEK293 cells, the item O=C(NC1CCNCC1)c1cc(C(=O)c2c(F)cccc2C(F)(F)F)c[nH]1 [Example 161] showed pIC50 equal to 4.78

Summary line: O=C(Nc1ccncc1)c1cc(C(=O)c2c(F)cccc2Br)c[nH]1 [Example 189] , ERK5 (HA-ERK5 wt activated by EGFP-MEK5D, MEF2D-Gal4/Gal4-Luc reporter) in HEK293 cells, reported pIC50 = 5.40

Bench note, ERK5 (HA-ERK5 wt activated by EGFP-MEK5D, MEF2D-Gal4/Gal4-Luc reporter) in HEK293 cells: entry O=C(Nc1cccnc1)c1cc(C(=O)c2c(F)cccc2F)c[nH]1 [Example 122] , its pIC50 = 4.59

Measured pIC50 (ERK5 (HA-ERK5 wt activated by EGFP-MEK5D, MEF2D-Gal4/Gal4-Luc reporter) in HEK293 cells), entry Cc1cccc(F)c1C(=O)c1c[nH]c(C(=O)NC2CCNCC2)c1 [Example 191] : 4.71

Observed pIC50, ERK5 (HA-ERK5 wt activated by EGFP-MEK5D, MEF2D-Gal4/Gal4-Luc reporter) in HEK293 cells, CN1CCN(c2ccc(NC(=O)c3cc(C(=O)c4c(F)cccc4Cl)c[nH]3)cn2)CC1 [Example 31] : 5.93

Form: item CC(C)(C)OC(=O)N1CCC(NC(=O)c2cc(C(=O)c3c(F)cccc3F)c[nH]2)CC1 [Example 123] ; test system ERK5 (HA-ERK5 wt activated by EGFP-MEK5D, MEF2D-Gal4/Gal4-Luc reporter) in HEK293 cells; pIC50: 4.60

The value of pIC50 recorded for O=C(Nc1cnn(C2CCNCC2)c1)c1cc(C(=O)c2c(F)cccc2Cl)c[nH]1 [Example 52] when tested on ERK5 (HA-ERK5 wt activated by EGFP-MEK5D, MEF2D-Gal4/Gal4-Luc reporter) in HEK293 cells reads 5.06

----------
- Test system: HA-ERK5-ΔP493 (MEK5D-activated, MEF2D-Gal4/Gal4-Luc reporter) in HeLa cells
- protocol text: Truncated dual-luciferase reporter assay, HeLa forward transfection
- Type: cell-based
- applied conditions: Homo sapiens, value with spread
Could you please report measured pIC50 for the items listed next?
Scale: negative log10 of molar concentration, which is what pIC50 denotes.

pIC50 reported for this molecule Cn1cc(NC(=O)c2cc(C(=O)c3c(F)cccc3F)c[nH]2)cn1 : 6.17

Summary for this molecule, Cc1cccc(F)c1C(=O)c1c[nH]c(C(=O)Nc2cnn(C)c2)c1 : pIC50 is 5.61

pIC50 reading for Cn1cc(NC(=O)c2cc(C(=O)c3ccccc3F)c[nH]2)cn1 : 5.49
